# subject_of_test: human FXa (Homo sapiens)
# Sequence (P00742 235-488 limits assumed): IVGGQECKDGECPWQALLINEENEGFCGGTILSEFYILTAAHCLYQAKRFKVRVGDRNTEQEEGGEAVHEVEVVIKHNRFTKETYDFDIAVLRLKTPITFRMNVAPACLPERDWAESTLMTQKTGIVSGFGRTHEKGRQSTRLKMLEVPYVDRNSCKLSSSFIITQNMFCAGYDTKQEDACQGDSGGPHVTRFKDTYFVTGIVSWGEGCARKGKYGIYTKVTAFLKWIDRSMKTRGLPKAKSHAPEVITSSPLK
# Sequence (P00742 41-179 partner limits assumed): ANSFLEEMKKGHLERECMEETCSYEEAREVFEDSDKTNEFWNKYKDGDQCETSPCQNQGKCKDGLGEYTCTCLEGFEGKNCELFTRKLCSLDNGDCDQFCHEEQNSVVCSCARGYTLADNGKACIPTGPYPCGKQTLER
# method_summary: Inhibitory effect on activated blood coagulation factor X (chromogenic substrate S-2222)
# measurement_parameters: human FXa 0.05 U/ml, S-2222 0.5 mM, 37° C., pH 8.4
attribute_measured: IC50 (µM)
Answer with a number only, understood to be in µM.

Task: State the recorded IC50 for this entry: COc1ccc2oc(C(=O)Nc3ccc(Cl)cn3)c(NC(=O)[C@H]3CC[C@H](N(C)C)CC3)c2n1
Result: 0.0108

Taken from patent US7737161B2.
